target: BRD4 BD1 (Homo sapiens, UniProt O60885); experiment: AlphaScreen binding assay, BRD4 Bromodomain 1
Parameter IC50: see the listing below.

Some solved entries appear below for comparison.
1. CC(C)OC(=O)N1CC(C)N(C(=O)C2CC2)c2ccc(-c3cnn(Cc4c[nH]cn4)c3)cc21 (centres unmarked) [Example I-616]; 0.1 to 1 µM
2. CC(=O)N1c2ccccc2N(S(=O)(=O)Cc2ccc(Cl)cc2)C[C@@H]1C [Example I-962]; > 10 µM
3. CC(=O)N1c2ccccc2N(C(=O)c2cc3ccccc3s2)C[C@@H]1C [Example I-746]; > 10 µM
4. CC(=O)N1c2ccc(-c3ccc4[nH]ccc4c3)cc2N(C(=O)c2ccco2)CC1C (centres unmarked) [Example I-385]; 1 to 10 µM
5. CC(=O)N1c2ccc(-c3cnn(CCC(=O)O)c3)cc2N(C(=O)C2CC2)C[C@@H]1C [Example I-136]; 1 to 10 µM
6. COc1ccc(-c2ccc3c(c2)N(C(=O)c2ccco2)C[C@H](C)N3C(C)=O)cc1 [Example I-807]; 0.1 to 1 µM
7. CC(=O)N1c2ccccc2N(C(=O)Cn2cnc3ccccc32)C[C@@H]1C [Example I-766]; > 10 µM

# context switch: different molecule, same IC50
Record summary for COC(=O)N1c2ccc(-c3ccc(NS(C)(=O)=O)cc3)cc2N(C(=O)Oc2ccccn2)C[C@@H]1C [Example I-1317] : reported IC50 = 1 to 10 µM

Data credit: patent US10703764B2
